These measurements were taken from patent US4593104A.

system: Gossyp. hirs.; test: preemergence treatment in the greenhouse, % damage; format: in vivo, Gosspyium hirsutum; conditions: 0.5 kg/ha
EXPERIMENTAL ENDPOINT: % damage (%)
Answer with a number only, understood to be in %.

Input: Need % damage of "Cc1ccc(C)c(N(Cn2cccn2)C(=O)CCl)c1C" , thanks.
Output: 0

Input: Need % damage of CCc1cccc(CC)c1N(COC)C(=O)CCl [prior art, reference compound] , thanks.
Output: 0

Input: Need % damage of "Cc1cc(C)n(CN(C(=O)CCl)c2c(C)ccc(C)c2C)n1" , thanks.
Output: 0

Input: Need % damage of "CCc1cccc(CC)c1N(Cn1nc(C)cc1C)C(=O)CCl" , thanks.
Output: 8

Input: Need % damage of "Cc1ccc(C)c(N(Cn2cncn2)C(=O)CCl)c1C" , thanks.
Output: 10

====

For each of the molecules below, state its % damage.
system: Sorgh. halep.; test: preemergence treatment in the greenhouse, % damage; type: in vivo; conditions: 0.5 kg/ha

Input: Missing value: % damage, Sorgh. halep., entry Cc1ccc(C)c(N(Cn2cccn2)C(=O)CCl)c1C [Compound 14] . Fill in?
Output: 95%

Input: Missing value: % damage, Sorgh. halep., entry Cc1cc(C)n(CN(C(=O)CCl)c2c(C)ccc(C)c2C)n1 [Compound 47] . Fill in?
Output: 90%

Input: Missing value: % damage, Sorgh. halep., entry CCc1ccccc1N(Cn1nc(C)cc1C)C(=O)CCl [Compound 36] . Fill in?
Output: 40%

Input: Missing value: % damage, Sorgh. halep., entry Cc1ccc(C)c(N(Cn2cncn2)C(=O)CCl)c1C [Compound 136] . Fill in?
Output: 80%

====

test system: Chrys. seget.; assay: postemergence application in the greenhouse, % damage; assay type: in vivo; settings: 1.0 kg/ha
EXPERIMENTAL ENDPOINT: % damage
Give the figure together with its unit, number first.

Input: Need % damage of "Cc1cccc(C)c1N(Cn1cccn1)C(=O)CCl" , thanks.
Output: 98%

Input: Need % damage of "CCc1cccc(C)c1N(Cn1ccc(C)n1)C(=O)CCl" , thanks.
Output: 40%

Input: Need % damage of CCc1cccc(CC)c1N(COC)C(=O)CCl [prior art, reference compound] , thanks.
Output: 15%

Input: Need % damage of "CCc1cccc(C)c1N(Cn1cncn1)C(=O)CCl" , thanks.
Output: 0%

====

Test system: Amar. retro.
Experiment: preemergence treatment in the greenhouse, % damage
Format: in vivo
Conditions: 2.0 kg/ha
Text: The vessels employed were plastic flowerpots having a volume of 300 cm^3; the substrate was a sandy loam containing about 1.5% humus. The seeds of the test plants (see Table 1) were sown shallow, and separated according to species. In the case of Cyperus esculentus, pregerminated tubers were planted. […] This cover ensured uniform germination of the test plants (to the extent that this was not impaired by the chemicals), and prevented readily volatile substances from evaporating. […]
EXPERIMENTAL ENDPOINT: % damage (%)
Answer with a number only, understood to be in %.

Input: Need % damage of "CCc1cccc(CC)c1N(Cn1nc(C)nc1C)C(=O)CCl" , thanks.
Output: 100

Input: Need % damage of "CCc1cccc(C)c1N(Cn1cncn1)C(=O)CCl" , thanks.
Output: 95

Input: Need % damage of "Cc1ccc(Cl)cc1N(Cn1cccn1)C(=O)CCl" , thanks.
Output: 95

Input: Need % damage of "Cc1cc(C)n(CN(C(=O)CCl)c2c(C(C)C)cccc2C(C)C)n1" , thanks.
Output: 80

Input: Need % damage of "Cc1cccc(C(C)C)c1N(Cn1cccn1)C(=O)CCl" , thanks.
Output: 100

Input: Need % damage of "Cc1cccc(N(Cn2cccn2)C(=O)CCl)c1C" , thanks.
Output: 90

Input: Need % damage of "Cc1ccn(CN(C(=O)CCl)c2ccccc2C(C)C)n1" , thanks.
Output: 95

Input: Need % damage of "Cc1cccc(N(Cn2cncn2)C(=O)CCl)c1C" , thanks.
Output: 40

Input: Need % damage of "Cc1cc(C)n(CN(C(=O)CCl)c2ccccc2)n1" , thanks.
Output: 100

Input: Need % damage of "Cc1ccc(C)c(N(Cn2nc(C)cc2C)C(=O)CCl)c1" , thanks.
Output: 100

Input: Need % damage of "CCc1cccc(CC)c1N(Cn1cncn1)C(=O)CCl" , thanks.
Output: 100

Input: Need % damage of "CC(C)c1ccccc1N(Cn1cccn1)C(=O)CCl" , thanks.
Output: 95

Input: Need % damage of CCc1cccc(CC)c1N(COC)C(=O)CCl [bekannt, reference compound] , thanks.
Output: 92

Input: Need % damage of "Cc1cccc(C)c1N(Cn1nc(C)c(Cl)c1C)C(=O)CCl" , thanks.
Output: 95

Input: Need % damage of "Cc1cccc(C(C)C)c1N(Cn1cncn1)C(=O)CCl" , thanks.
Output: 80

Input: Need % damage of "CCc1cccc(C)c1N(Cn1ccc(C)n1)C(=O)CCl" , thanks.
Output: 100

Input: Need % damage of "Cc1cc(C)c(N(Cn2cccn2)C(=O)CCl)c(C)c1" , thanks.
Output: 100

Input: Need % damage of "CCc1cccc(CC)c1N(Cn1nc(C)c(Cl)c1C)C(=O)CCl" , thanks.
Output: 100

Input: Need % damage of "CC(C)c1cccc(C(C)C)c1N(Cn1cccn1)C(=O)CCl" , thanks.
Output: 90

Input: Need % damage of "CCc1cccc(C)c1N(Cn1nc(C)c(Cl)c1C)C(=O)CCl" , thanks.
Output: 95

Input: Need % damage of "CCc1cccc(CC)c1N(Cn1nc(C)cc1C)C(=O)CCl" , thanks.
Output: 100

====

tested on: Setaria spp.; test: preemergence treatment in the greenhouse, % damage; type: in vivo; details: 2.0 kg/ha
For each of the molecules below, state its % damage.
Give the figure together with its unit, number first.

Input: Missing value: % damage, Setaria spp., entry "Cc1ccccc1N(Cn1cccn1)C(=O)CCl" . Fill in?
Output: 95%

Input: Missing value: % damage, Setaria spp., entry "Cc1ccccc1N(Cn1nc(C)c(C)c1C)C(=O)CCl" . Fill in?
Output: 100%

Input: Missing value: % damage, Setaria spp., entry Cc1cccc(C)c1N(Cn1nc(C)c(Cl)c1C)C(=O)CCl [Compound 106] . Fill in?
Output: 95%

Input: Missing value: % damage, Setaria spp., entry "CCc1cccc(CC)c1N(Cn1cc(OC)cn1)C(=O)CCl" . Fill in?
Output: 100%

Input: Missing value: % damage, Setaria spp., entry Cc1ccc(Cl)cc1N(Cn1cccn1)C(=O)CCl [Compound 24] . Fill in?
Output: 85%

Input: Missing value: % damage, Setaria spp., entry CCc1cccc(C)c1N(Cn1ccc(C)n1)C(=O)CCl [Compound 68] . Fill in?
Output: 100%

Input: Missing value: % damage, Setaria spp., entry "Cc1cccc(C)c1N(Cn1cc(Cl)cn1)C(=O)CCl" . Fill in?
Output: 100%

Input: Missing value: % damage, Setaria spp., entry Cc1cc(C)n(CN(C(=O)CCl)c2ccccc2)n1 [Compound 34] . Fill in?
Output: 95%

Input: Missing value: % damage, Setaria spp., entry Cc1cccc(N(Cn2cccn2)C(=O)CCl)c1C [Compound 17] . Fill in?
Output: 90%

Input: Missing value: % damage, Setaria spp., entry CC(C)c1ccccc1N(Cn1cccn1)C(=O)CCl [Compound 4] . Fill in?
Output: 90%

Input: Missing value: % damage, Setaria spp., entry CCc1cccc(C)c1N(Cn1cncn1)C(=O)CCl [Compound 189] . Fill in?
Output: 100%

Input: Missing value: % damage, Setaria spp., entry "Cc1ccccc1N(Cn1nccc1C)C(=O)CCl" . Fill in?
Output: 100%

Input: Missing value: % damage, Setaria spp., entry CCc1cccc(C)c1N(Cn1nc(C)c(Cl)c1C)C(=O)CCl [Compound 107] . Fill in?
Output: 95%

Input: Missing value: % damage, Setaria spp., entry CCc1cccc(CC)c1N(Cn1cncn1)C(=O)CCl [Compound 130] . Fill in?
Output: 100%

Input: Missing value: % damage, Setaria spp., entry Cc1cccc(C(C)C)c1N(Cn1cncn1)C(=O)CCl [Compound 131] . Fill in?
Output: 100%

Input: Missing value: % damage, Setaria spp., entry "Cc1cccc(C)c1N(Cn1ncnn1)C(=O)CCl" . Fill in?
Output: 95%

Input: Missing value: % damage, Setaria spp., entry CCc1cccc(CC)c1N(Cn1nc(C)c(Cl)c1C)C(=O)CCl [Compound 108] . Fill in?
Output: 90%

Input: Missing value: % damage, Setaria spp., entry CC(C)c1cccc(C(C)C)c1N(Cn1cccn1)C(=O)CCl [Compound 11] . Fill in?
Output: 80%

Input: Missing value: % damage, Setaria spp., entry Cc1ccc(C)c(N(Cn2nc(C)cc2C)C(=O)CCl)c1 [Compound 52] . Fill in?
Output: 90%

Input: Missing value: % damage, Setaria spp., entry Cc1cccc(N(Cn2cncn2)C(=O)CCl)c1C [Compound 139] . Fill in?
Output: 30%

Input: Missing value: % damage, Setaria spp., entry Cc1ccn(CN(C(=O)CCl)c2ccccc2C(C)C)n1 [Compound 72] . Fill in?
Output: 95%

Input: Missing value: % damage, Setaria spp., entry Cc1cccc(C(C)C)c1N(Cn1cccn1)C(=O)CCl [Compound 9] . Fill in?
Output: 100%

Input: Missing value: % damage, Setaria spp., entry Cc1cc(C)c(N(Cn2cccn2)C(=O)CCl)c(C)c1 [Compound 13] . Fill in?
Output: 90%

Input: Missing value: % damage, Setaria spp., entry CCc1cccc(CC)c1N(COC)C(=O)CCl [prior art, reference compound] . Fill in?
Output: 100%

Input: Missing value: % damage, Setaria spp., entry Cc1cc(C)n(CN(C(=O)CCl)c2c(C(C)C)cccc2C(C)C)n1 [Compound 44] . Fill in?
Output: 90%

Input: Missing value: % damage, Setaria spp., entry CCc1cccc(CC)c1N(Cn1nc(C)nc1C)C(=O)CCl [Compound 162] . Fill in?
Output: 100%
